// data source = ChEMBL document CHEMBL1201862

# System: SK-MEL-28
# protocol: NCI tumour cell line growth inhibition, 48 h
Active and inactive are the calls of the source. Cut-off read from the data, not from the text of the source: active = GI50 up to about 1.1 µM and inactive = higher.
endpoint_label: GI50

Here is how some compounds turned out for GI50.
compound	study_target	value_reported
COC(=O)c1ccc(CCC2=CC(=O)C(Br)=CC2=O)cc1	SK-MEL-28	16.7 µM (inactive)
CN(C)c1ccc(/N=N/c2ccc3[nH]cnc3c2)cc1	SK-MEL-28	11.5 µM (inactive)

GET /value?item= `CCOC(=O)C(=O)Nc1ccccc1C(F)(F)F` &field=GI50 returns > 100 µM (inactive)

GET /value?item= CC12CC3(O)OC(O1)C1(COC(=O)c4ccccc4)C3CC21OC1OC(CO)C(O)C(O)C1O (centres undefined) &field=GI50 returns > 100 µM (inactive)

GET /value?item= CC(SCc1ccccc1)C(=O)O (centres undefined) &field=GI50 returns > 100 µM (inactive)

GET /value?item= `NNc1ncc2c(n1)-c1ccccc1OC2` &field=GI50 returns > 100 µM (inactive)

GET /value?item= `O=C(Nc1ccccc1F)c1c(O)nc2sccn2c1=O` &field=GI50 returns > 10 µM (inactive)

* * *

# Test system: NCI-H460
# protocol: NCI tumour cell line growth inhibition, 48 h
Active and inactive are the calls of the source. No stated cut-off is given here; in the data, active = GI50 up to about 1.1 µM and inactive = higher.
endpoint_label: GI50

Here is how some compounds turned out for GI50.
compound	endpoint_label	value_reported
C[N+](C)(C)CC1CCCC(C[N+](C)(C)C)C1=O (stereo unspecified)	GI50	16.3 µM (inactive)
CSc1nc(CO)c(CO)n1C	GI50	> 100 µM (inactive)
C1CC2CN(CCCN3CCOCC3)C(C1)O2 (stereo unspecified)	GI50	> 100 µM (inactive)
CNC(=O)SCC(N)C(=O)O (stereo unspecified)	GI50	> 68.7 µM (inactive)
COc1cc(-c2cc(=O)c3c(O)c(CC=C(C)C)c(O)cc3o2)ccc1O	GI50	19.5 µM (inactive)

Now look at this one.
GET /value?item= CC(=O)O[C@H]1CC[C@@]2(C)C(CC[C@]3(C)C2CC[C@]2(C)Oc4c(C)cc(O)cc4C[C@@H]23)C1(C)C (stereo partly specified) &field=GI50 returns 4.11 µM (inactive)

* * *

# System: CCRF-CEM
# protocol: NCI tumour cell line growth inhibition, 48 h
Active and inactive are the calls of the source. No stated cut-off is given here; in the data, active = GI50 up to about 1.1 µM and inactive = higher.
The reply should name one outcome from active, inactive

Please review the entries below; each comes with its answer.
molecule	classification
COC(=O)c1ccc(NCC2=CC(=O)C=CC2=O)cc1	inactive
CC12CC(Sc3ccccc3N1)c1ccccc1O2 (centres undefined)	inactive
CN1CCc2c(sc3ncn(C)c(=N)c23)C1	inactive

Consider the additional molecule presented here.
Per the records of this test, what outcome belongs to `CN(C)CC/C(=N\Nc1ccc(Cl)cc1)c1ccccc1` ?
active

* * *

# Test system: RPMI-8226
# protocol: NCI tumour cell line growth inhibition, 48 h
Activity calls are given as the source filed them. Rule as the data show it: active = GI50 up to about 1.1 µM and inactive = higher.
endpoint_label: GI50

sample_smiles	endpoint_label	value_reported
Cc1ccc(S(=O)(=O)N2CCC(C(=O)O)(c3ccccc3)CC2)cc1	GI50	> 100 µM (inactive)
O=[N+]([O-])c1ccc2c(c1)Sc1ccccc1N2	GI50	5.79 µM (inactive)
CCOC(=O)c1ccc(NCC#CCN2CCOCC2)cc1	GI50	> 100 µM (inactive)

GET /value?item= `C=CCN(c1cc(OCc2ccccc2)c2[nH]cc(C)c2c1)S(C)(=O)=O` &field=GI50 returns 39.4 µM (inactive)
